- SYSTEM_UNDER_TEST: human AR (Homo sapiens, UniProt P10275)
- Construct: expressed in transfected cells; host or cells: CV-1 cells (African green monkey kidney fibroblasts)
- Sequence (P10275 1-920): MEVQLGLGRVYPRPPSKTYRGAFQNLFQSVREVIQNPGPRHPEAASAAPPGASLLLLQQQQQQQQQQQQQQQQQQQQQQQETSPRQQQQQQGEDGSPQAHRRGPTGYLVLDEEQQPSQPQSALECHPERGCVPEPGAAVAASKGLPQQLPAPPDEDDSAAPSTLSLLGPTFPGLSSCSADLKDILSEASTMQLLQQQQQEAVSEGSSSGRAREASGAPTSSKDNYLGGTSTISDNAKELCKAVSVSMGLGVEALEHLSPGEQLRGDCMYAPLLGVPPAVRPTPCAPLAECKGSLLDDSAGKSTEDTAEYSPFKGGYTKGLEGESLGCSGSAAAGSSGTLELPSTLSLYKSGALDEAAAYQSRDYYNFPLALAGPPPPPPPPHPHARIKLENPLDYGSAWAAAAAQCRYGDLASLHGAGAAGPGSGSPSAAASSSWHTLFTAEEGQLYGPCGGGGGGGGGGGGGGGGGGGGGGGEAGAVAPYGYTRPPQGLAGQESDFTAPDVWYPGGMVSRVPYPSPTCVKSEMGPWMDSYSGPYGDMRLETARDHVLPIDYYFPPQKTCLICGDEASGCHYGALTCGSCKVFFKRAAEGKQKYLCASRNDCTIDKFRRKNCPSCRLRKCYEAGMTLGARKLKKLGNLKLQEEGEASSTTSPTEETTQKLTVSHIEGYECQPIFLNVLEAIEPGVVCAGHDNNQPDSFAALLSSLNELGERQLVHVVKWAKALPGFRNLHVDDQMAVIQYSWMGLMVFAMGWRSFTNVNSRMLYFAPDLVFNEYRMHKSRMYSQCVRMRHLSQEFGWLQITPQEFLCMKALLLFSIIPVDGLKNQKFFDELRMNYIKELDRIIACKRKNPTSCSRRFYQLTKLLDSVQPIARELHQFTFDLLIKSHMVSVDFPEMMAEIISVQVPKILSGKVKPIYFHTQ
- ASSAY_TEXT: cell-based
- Assay type: cell-based
- CONDITION_CONTEXT: agonist mode; na = not active (efficacy < 10 and potency > 10,000); read-out: AR Agonist CV-1 Cells Potency
TEST_READOUT: EC50
Units required after the number.

Quick one: EC50 for CC1CC(C)(C)n2oc(=O)c3c4[nH]c(=O)cc(C(F)(F)F)c4cc1c32 (stereo not shown) ?
245 nM

---

Quick reference for pKi among some compounds
- SYSTEM_UNDER_TEST: human AR (Homo sapiens)
- Sequence (P10275 1-920): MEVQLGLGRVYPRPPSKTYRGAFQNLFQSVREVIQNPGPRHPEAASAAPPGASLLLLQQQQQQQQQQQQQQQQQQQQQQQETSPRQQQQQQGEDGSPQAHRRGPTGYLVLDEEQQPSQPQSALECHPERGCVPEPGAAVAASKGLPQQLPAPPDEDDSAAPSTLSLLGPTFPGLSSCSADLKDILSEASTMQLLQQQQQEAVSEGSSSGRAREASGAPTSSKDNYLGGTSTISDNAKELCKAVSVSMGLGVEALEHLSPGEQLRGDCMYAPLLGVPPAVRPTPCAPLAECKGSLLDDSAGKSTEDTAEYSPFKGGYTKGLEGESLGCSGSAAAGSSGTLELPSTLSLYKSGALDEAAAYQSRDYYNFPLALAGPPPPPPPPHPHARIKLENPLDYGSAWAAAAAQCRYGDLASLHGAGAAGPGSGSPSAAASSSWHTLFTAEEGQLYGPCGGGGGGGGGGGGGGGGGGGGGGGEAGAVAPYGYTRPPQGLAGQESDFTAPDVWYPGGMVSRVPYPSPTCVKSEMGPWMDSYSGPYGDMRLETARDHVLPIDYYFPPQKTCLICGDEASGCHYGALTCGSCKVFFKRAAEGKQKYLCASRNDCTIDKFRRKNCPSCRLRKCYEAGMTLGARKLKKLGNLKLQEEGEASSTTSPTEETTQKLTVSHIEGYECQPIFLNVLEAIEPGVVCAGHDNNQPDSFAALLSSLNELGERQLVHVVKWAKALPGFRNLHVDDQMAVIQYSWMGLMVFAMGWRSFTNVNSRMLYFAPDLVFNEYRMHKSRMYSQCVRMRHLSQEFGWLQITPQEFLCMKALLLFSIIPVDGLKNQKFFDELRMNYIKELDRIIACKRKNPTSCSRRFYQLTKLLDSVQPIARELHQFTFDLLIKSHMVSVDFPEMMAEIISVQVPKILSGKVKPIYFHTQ
Note: pKi values are expressed as the negative base-10 logarithm of concentration in M.

| COMPOUND | pKi |
| --- | --- |
| Cn1c(=O)c(F)c(C(F)(F)F)c2cc3c(cc21)NC(C)(C)CC3 | 6.96 |

Now look at this one.
Consider the compound shown here: `CCC1(CC)CCc2cc3c(C(F)(F)F)c(F)c(=O)[nH]c3cc2N1` What is its recorded pKi?
6.81

meta.source: patent US6534516B1
